The reported numbers originate from the supplement of paper PMC10567573.

B1: SPATS1 (parent)
chain: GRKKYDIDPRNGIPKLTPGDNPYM

- Variants of: B1
- experimentalDetails: protein stability index of a GFP-peptide fusion (GPS, HEK-293T) (PSI 1-6); higher = more stable;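 further: lentivirally expressed fusions sorted by FACS into six bins by GFP to DsRed ratio, PSI derived from sequencing read proportions per bin multiplied by bin number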
- conditions: c terminus: a fixed tail appended
readoutType: protein stability index

{"variantDescriptor": "G19K", "testValue": 3.31}
{"variantDescriptor": "G12P", "testValue": 3.9}
{"variantDescriptor": "N21C", "testValue": 3.34}
{"variantDescriptor": "N21Q", "testValue": 3.67}
{"variantDescriptor": "L16M", "testValue": 3.67}
{"variantDescriptor": "I7L", "testValue": 3.39}
{"variantDescriptor": "P18D", "testValue": 3.82}
{"variantDescriptor": "L16Y", "testValue": 3.22}
{"variantDescriptor": "K4F", "testValue": 2.62}
{"variantDescriptor": "P18K", "testValue": 3.62}
{"variantDescriptor": "P22H", "testValue": 3.74}
